Biological target: T1, recombinant human full-length TDP-43 (TAR DNA-binding protein 43), soluble (human, UniProt Q13148 1-414)
T1 construct: Used on Luminex beads, coated on ELISA plates, and immobilized or injected in SPR; also called FL TDP-43; TDP-43 protein
T1 sequence (Q13148 whole entry): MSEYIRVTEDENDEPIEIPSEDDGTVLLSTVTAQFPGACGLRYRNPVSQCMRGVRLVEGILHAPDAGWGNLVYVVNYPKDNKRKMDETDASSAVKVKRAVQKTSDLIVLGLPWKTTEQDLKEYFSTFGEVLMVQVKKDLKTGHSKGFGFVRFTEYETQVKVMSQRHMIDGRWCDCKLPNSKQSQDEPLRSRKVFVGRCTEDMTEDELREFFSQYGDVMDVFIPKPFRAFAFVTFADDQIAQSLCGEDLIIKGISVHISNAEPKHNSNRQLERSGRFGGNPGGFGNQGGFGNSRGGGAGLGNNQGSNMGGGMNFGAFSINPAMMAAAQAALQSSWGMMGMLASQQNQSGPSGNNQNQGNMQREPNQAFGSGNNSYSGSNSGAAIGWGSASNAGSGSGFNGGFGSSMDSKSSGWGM
Assay: SPR 8K, immobilized soluble TDP-43
The entries below come with measured pKd values attached.
Entry type: numeric. Quantity: pKd, the -log10 of concentration in molar units.

Below: 4 binders and their reported pKd.
BINDER: hACI-7069-633B12-Ab1_H19L19 (IgG4) (antibody, V domains shown) VH: QVQLVQSGAEVKKPGASVKVSCKTSGFTFTEYSMHWVRQAPGQRLEWIGGINPGNAGTSYNQKFKGRVTITVDTSASTAYMELSSLRSEDTAVYYCARESWGQGTTVTVSS VL: DVVMTQSPLSLPVTLGQPASISCKSSQSLLHSDAKTYLNWLQQRPGQSPKRLIYLVSKLDSRVPDRFSGSGSGTDFTLKISRVEAEDLGVYYCFQGTHFPHTFGQGTKLEIK
TEST_RESULT: 9.29

BINDER: hACI-7069-633B12-Ab1_H20L14 (IgG4) (antibody, V domains shown) VH: EVQLVQSGAEVKKPGASVKVSCKTSGFTFTEYSMHWVRQAPGQRLEWIGGINPGNAGTSYNQKFKGRVTITVDTSASTAYMELSSLRSEDTAVYYCARESWGQGTTVTVSS VL: DVVMTQSPLSLPVTLGQPASISCKSSQSLLHSDAKTYLNWLQQRPGQSPRRLIYLVSKLDSGVPDRFSGSGSGTDFTLKISRVEAEDLGVYYCFQGTHFPHTFGQGTKLEIK
TEST_RESULT: 8.76

BINDER: hACI-7069-633B12-Ab1_H17L14 (IgG4) (antibody, V domains shown) VH: QVQLVQSGAEVKKPGASVKVSCKASGFTFTEYSMHWVKQAPGQRLEWMGGINPGNAGTSYNQKFKGRVTITVDTSASTAYMELSSLRSEDTAVYYCARESWGQGTTVTVSS VL: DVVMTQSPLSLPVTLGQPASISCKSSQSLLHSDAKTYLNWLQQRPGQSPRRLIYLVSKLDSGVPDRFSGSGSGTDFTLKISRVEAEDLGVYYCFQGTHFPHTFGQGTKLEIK
TEST_RESULT: 8.87

BINDER: hACI-7069-633B12-Ab1_H20L18 (IgG4) (antibody, V domains shown) VH: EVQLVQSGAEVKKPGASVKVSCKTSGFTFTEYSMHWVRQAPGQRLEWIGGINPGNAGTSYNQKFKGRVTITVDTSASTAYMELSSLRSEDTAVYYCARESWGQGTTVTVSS VL: DVVMTQSPLSLPVTLGQPASISCKSSQSLLHSDAKTYLNWLQQRPGQSPRRLIYLVSKLDSRVPDRFSGSGSGTDFTLKISRVEAEDLGVYYCFQGTHFPHTFGQGTKLEIK
TEST_RESULT: 9.35

*Q* Item hACI-7069-633B12-Ab1_H19L17 (IgG4) (antibody, V domains shown) VH: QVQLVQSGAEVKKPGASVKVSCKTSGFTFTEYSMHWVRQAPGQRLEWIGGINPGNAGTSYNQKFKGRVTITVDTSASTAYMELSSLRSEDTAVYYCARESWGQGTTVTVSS VL: DVVMTQSPLSLPVTLGQPASISCKSSQSLLHSDAKTYLNWLLQRPGQSPRRLIYLVSKLDSGVPDRFSGSGSGTDFTLKISRVEAEDLGVYYCFQGTHFPHTFGQGTKLEIK has what recorded pKd?
*A* 8.86
